- target under test: recombinant human FAPα (rhFAPα) (Homo sapiens, UniProt Q12884)
- Construct: purchased R&S system (so in the source)
- assay protocol: FAPα enzymatic exopeptidase (dipeptidase) activity assay
- Type: biochemical
- condition: Table 2; exopeptidase, Z-Gly-Pro-AMC; read-out: rhFAPα (exo IC50)
pIC50: −log10 of the molar value.
reported endpoint: pIC50

Examples from the recorded data:
>>> print(df.to_string())
                                   molecule  reported_endpoint  observed_measurement
0  N#C[C@@H]1CC(F)(F)CN1C(=O)CNC(=O)c1c[nH]c(=O)cc1-c1ccnc2ccccc12 [Compound 116]              pIC50                > 6.00
1  N#C[C@@H]1CC(F)(F)CN1C(=O)CNC(=O)c1c[nH]c(=O)cc1-c1ccccc1 [Compound 29]              pIC50                > 6.00
2  N#C[C@@H]1CC(F)(F)CN1C(=O)CNC(=O)c1c[nH]c(=O)cc1-c1ccc(F)cc1 [Compound 109]              pIC50                > 6.00
3  N#C[C@@H]1CC(F)(F)CN1C(=O)CNC(=O)c1ccncc1Oc1ccccc1 [Compound 97]              pIC50                > 6.00
4  N#C[C@@H]1CC(F)(F)CN1C(=O)CNC(=O)c1ccncc1N1CCOCC1 [Compound 88]              pIC50                > 6.00

// molecule N#C[C@@H]1CC(F)(F)CN1C(=O)CNC(=O)c1ccncc1Nc1cccnc1 [Compound 117] , assay recombinant human FAPα (rhFAPα) (Homo sapiens, UniProt Q12884), pIC50 value: > 6.00

Assay recombinant human FAPα (rhFAPα) (Homo sapiens, UniProt Q12884), sample Cn1ccc2c(-c3cnccc3C(=O)NCC(=O)N3CC(F)(F)C[C@H]3C#N)cccc21 [Compound 66] , pIC50 read: > 6.00

Record CCOc1cnccc1C(=O)NCC(=O)N1CC(F)(F)C[C@H]1C#N [Compound 113] / recombinant human FAPα (rhFAPα) (Homo sapiens, UniProt Q12884), pIC50 recorded as > 6.00

Record Cc1ccccc1-c1cnccc1C(=O)NCC(=O)N1CC(F)(F)C[C@H]1C#N [Compound 64] has recombinant human FAPα (rhFAPα) (Homo sapiens, UniProt Q12884) pIC50 equal to > 6.00

Tested on recombinant human FAPα (rhFAPα) (Homo sapiens, UniProt Q12884): N#C[C@@H]1CC(F)(F)CN1C(=O)CNC(=O)c1ccc(=O)[nH]c1 [Example 6] . Observed pIC50: > 6.00

====

- target under test: recombinant human FAPα (rhFAPα) (Homo sapiens)
- Construct: purchased R&S system (so in the source)
- Sequence (Q12884 1-760): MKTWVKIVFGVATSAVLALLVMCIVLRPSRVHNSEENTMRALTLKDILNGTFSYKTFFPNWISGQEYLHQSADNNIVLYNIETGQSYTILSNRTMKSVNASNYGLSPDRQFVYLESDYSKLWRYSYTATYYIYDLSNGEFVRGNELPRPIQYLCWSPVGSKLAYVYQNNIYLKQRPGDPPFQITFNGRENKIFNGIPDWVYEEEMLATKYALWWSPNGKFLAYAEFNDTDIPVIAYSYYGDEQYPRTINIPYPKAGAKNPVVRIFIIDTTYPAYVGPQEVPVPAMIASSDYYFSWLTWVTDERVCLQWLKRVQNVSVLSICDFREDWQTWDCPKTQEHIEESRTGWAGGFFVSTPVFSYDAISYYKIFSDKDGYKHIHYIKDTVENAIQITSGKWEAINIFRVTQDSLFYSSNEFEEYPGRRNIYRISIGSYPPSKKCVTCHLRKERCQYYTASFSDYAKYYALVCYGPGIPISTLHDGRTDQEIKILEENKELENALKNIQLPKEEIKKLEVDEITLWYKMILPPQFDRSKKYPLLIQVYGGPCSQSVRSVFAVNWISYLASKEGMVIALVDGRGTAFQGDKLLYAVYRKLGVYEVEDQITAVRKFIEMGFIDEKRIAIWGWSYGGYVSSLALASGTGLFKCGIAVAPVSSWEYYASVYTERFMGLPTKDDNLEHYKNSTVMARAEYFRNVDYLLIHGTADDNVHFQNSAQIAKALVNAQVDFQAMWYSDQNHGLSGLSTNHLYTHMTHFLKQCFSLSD
- assay protocol: FAPα enzymatic exopeptidase (dipeptidase) activity assay
- Format: biochemical
- condition: 1 μM test compound; Z-Gly-Pro-AMC substrate; read-out: rhFAPα (% exo inh @ 1 μM)
Below, each entry is listed alongside its reported inhibition at 1 µM.

# example entries with known answers
In [3]: df
Out[3]:
                                   compound                         target_under_test   reported_endpoint  observed_measurement
0  N#C[C@@H]1CC(F)(F)CN1C(=O)CNC(=O)c1c[nH]c(=O)c2ccc(F)cc12 [Compound 26]  recombinant human FAPα (rhFAPα) (Homo sapiens)  inhibition at 1 µM                 > 50%
1  Cc1noc(C)c1-c1cnccc1C(=O)NCC(=O)N1CC(F)(F)C[C@H]1C#N [Compound 110]  recombinant human FAPα (rhFAPα) (Homo sapiens)  inhibition at 1 µM                 > 50%
2  N#Cc1ccc(C(=O)NCC(=O)N2CC(F)(F)C[C@H]2C#N)cc1 [Compound 17]  recombinant human FAPα (rhFAPα) (Homo sapiens)  inhibition at 1 µM             25 to 50%

Turning now to a further record.
Briefly, inhibition at 1 µM measured for N#C[C@@H]1CC(F)(F)CN1C(=O)CNC(=O)c1ccncc1-c1ccnc2ccccc12 [Compound 51] : > 50%

====

This listing pairs compounds with measured pIC50.
- target under test: recombinant human PREP (rhPREP) (Homo sapiens)
- Sequence (P48147 whole entry): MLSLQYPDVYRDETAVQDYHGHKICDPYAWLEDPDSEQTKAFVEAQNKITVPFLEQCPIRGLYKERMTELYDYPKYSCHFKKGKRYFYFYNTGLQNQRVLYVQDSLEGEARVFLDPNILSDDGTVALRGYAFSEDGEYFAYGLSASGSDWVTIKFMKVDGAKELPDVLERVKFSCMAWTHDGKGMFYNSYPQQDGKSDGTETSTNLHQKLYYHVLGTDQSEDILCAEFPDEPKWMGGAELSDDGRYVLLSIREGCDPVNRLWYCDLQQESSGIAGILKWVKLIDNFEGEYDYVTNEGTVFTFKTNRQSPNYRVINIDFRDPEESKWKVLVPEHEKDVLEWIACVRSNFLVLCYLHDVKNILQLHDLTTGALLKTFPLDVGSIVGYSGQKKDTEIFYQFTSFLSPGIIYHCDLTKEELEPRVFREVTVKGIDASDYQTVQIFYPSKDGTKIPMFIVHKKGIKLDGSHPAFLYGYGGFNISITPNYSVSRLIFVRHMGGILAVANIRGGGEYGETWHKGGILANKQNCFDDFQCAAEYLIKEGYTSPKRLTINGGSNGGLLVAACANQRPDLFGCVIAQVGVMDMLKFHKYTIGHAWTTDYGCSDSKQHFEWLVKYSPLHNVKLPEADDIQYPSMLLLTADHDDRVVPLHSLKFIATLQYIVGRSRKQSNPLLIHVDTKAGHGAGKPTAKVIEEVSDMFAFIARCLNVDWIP
- assay protocol: PREP enzymatic activity assay
- condition: Z-Gly-Pro-AMC substrate
pIC50: −log10 of the molar value.

Reference set, count: 6
                                   compound                         target_under_test  reported_endpoint  observed_measurement
0  N#C[C@@H]1CC(F)(F)CN1C(=O)CNC(=O)c1ccncc1-c1cc(F)cc(F)c1 [Compound 47]  recombinant human PREP (rhPREP) (Homo sapiens)              pIC50                < 5.00
1  N#C[C@@H]1CC(F)(F)CN1C(=O)CNC(=O)c1c[nH]c(=O)c2ccc(F)cc12 [Compound 26]  recombinant human PREP (rhPREP) (Homo sapiens)              pIC50          5.00 to 6.00
2  N#C[C@@H]1CC(F)(F)CN1C(=O)CNC(=O)c1c[nH]c(=O)c2ccccc12 [Example 1]  recombinant human PREP (rhPREP) (Homo sapiens)              pIC50          5.00 to 6.00
3  N#C[C@@H]1CC(F)(F)CN1C(=O)CNC(=O)c1coc(=O)c2ccccc12 [Compound 22]  recombinant human PREP (rhPREP) (Homo sapiens)              pIC50          5.00 to 6.00
4  N#C[C@@H]1CC(F)(F)CN1C(=O)CNC(=O)c1c[nH]c(=O)c(-c2ccccc2)c1 [Compound 14]  recombinant human PREP (rhPREP) (Homo sapiens)              pIC50                < 5.00
5  N#C[C@@H]1CC(F)(F)CN1C(=O)CNC(=O)c1ccncc1-c1ccc2c(c1)CCN2 [Compound 104]  recombinant human PREP (rhPREP) (Homo sapiens)              pIC50                < 5.00

So, Cc1ccc(-c2cnccc2C(=O)NCC(=O)N2CC(F)(F)C[C@H]2C#N)o1 [Compound 106] ? Its pIC50 was < 5.00

pIC50 reading for CCOc1cnccc1C(=O)NCC(=O)N1CC(F)(F)C[C@H]1C#N [Compound 113] : < 5.00

====

// reported IC50 for each item listed
- target under test: recombinant human DPPIV (rhDPPIV) (Homo sapiens, UniProt P27487)
- Sequence (P27487 whole entry): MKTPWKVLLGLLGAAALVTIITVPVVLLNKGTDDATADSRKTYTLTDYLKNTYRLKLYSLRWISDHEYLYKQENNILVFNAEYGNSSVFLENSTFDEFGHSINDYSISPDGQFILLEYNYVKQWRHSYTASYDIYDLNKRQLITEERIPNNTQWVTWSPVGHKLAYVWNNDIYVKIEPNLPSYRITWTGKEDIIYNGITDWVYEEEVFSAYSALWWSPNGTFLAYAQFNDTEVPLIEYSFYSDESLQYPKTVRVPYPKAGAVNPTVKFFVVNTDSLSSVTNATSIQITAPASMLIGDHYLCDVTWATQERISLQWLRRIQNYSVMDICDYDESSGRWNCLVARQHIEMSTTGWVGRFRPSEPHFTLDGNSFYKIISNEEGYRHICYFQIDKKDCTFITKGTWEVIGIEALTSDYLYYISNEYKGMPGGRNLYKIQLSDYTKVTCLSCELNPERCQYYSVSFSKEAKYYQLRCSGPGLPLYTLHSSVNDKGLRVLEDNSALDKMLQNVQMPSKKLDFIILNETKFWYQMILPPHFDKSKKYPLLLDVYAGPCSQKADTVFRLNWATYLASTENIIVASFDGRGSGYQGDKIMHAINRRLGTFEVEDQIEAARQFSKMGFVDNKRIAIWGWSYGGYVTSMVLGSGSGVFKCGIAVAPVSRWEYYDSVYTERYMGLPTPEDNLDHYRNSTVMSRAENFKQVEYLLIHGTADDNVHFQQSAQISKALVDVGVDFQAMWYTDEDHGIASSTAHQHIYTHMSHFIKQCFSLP
- assay protocol: DPPIV enzymatic activity assay
- condition: H-Gly-Pro-pNA substrate
Counter-ions that a name gives are not always drawn.

Entry N#C[C@@H]1CC(F)(F)CN1C(=O)CNC(=O)c1ccncc1-c1ccc(Cl)c(F)c1 under recombinant human DPPIV (rhDPPIV) (Homo sapiens, UniProt P27487) had IC50 of 1 to 10 µM

Log: recombinant human DPPIV (rhDPPIV) (Homo sapiens, UniProt P27487), compound N#C[C@@H]1CC(F)(F)CN1C(=O)CNC(=O)c1c[nH]c(=O)cc1-c1ccnc2ccccc12 , IC50 = 1 to 10 µM

Response field IC50 (recombinant human DPPIV (rhDPPIV) (Homo sapiens, UniProt P27487)) for item N#C[C@@H]1CC(F)(F)CN1C(=O)CNC(=O)c1ccncc1-c1ccc(N)nc1 [Compound 107, formate] : 1 to 10 µM
